Biological target: T1, RXFP1 receptor (endogenous, on OVCAR5 cells) (UniProt Q9HBX9 1-757, limits assumed)
T1 sequence (looked up): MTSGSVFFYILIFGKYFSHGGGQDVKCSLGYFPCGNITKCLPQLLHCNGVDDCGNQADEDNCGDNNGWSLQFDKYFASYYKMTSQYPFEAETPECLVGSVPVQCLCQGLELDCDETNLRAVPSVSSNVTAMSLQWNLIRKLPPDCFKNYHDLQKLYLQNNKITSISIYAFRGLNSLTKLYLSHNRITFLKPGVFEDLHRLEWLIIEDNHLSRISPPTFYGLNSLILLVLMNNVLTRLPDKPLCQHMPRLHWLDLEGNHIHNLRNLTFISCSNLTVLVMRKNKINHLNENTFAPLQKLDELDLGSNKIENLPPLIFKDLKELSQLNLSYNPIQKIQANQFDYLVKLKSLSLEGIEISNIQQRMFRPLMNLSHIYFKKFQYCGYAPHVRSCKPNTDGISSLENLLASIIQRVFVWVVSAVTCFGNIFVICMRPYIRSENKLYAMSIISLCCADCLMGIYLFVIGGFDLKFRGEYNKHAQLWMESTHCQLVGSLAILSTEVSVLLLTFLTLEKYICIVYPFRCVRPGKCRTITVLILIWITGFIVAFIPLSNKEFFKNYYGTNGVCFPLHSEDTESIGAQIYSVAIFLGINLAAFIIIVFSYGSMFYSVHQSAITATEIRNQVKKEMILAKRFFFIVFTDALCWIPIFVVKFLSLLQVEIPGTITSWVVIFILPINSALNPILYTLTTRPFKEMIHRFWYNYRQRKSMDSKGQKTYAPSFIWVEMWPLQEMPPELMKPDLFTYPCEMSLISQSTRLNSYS
Test: cell-based or functional assay
Starred links: 1 amine or outer side, 2 acyl side, 3 side chain; linkers in the order of their positions; H or OH if unused. Non-standard residues stand in square brackets, D forms with d. Groups on a side chain read outwards from the residue. *: point of attachment. TTDS = 4-[3-[2-[2-(3-aminopropoxy)ethoxy]ethoxy]propylamino]-4-oxo-butanoyl; Trp(5-Cl) = N[C@@H](Cc1c[nH]c2ccc(Cl)cc12)C(=O)O; γGlu = O=C(O)[C@H](CCC(=O)[*:2])N[*:1]; Palmitoyl = CCCCCCCCCCCCCCCC(=O)*; αMeK = C[C@](N)(CCCCN)C(=O)O; Aib = CC(C)(N)C(=O)O
measuredAttribute: EC50 (nM), OVCAR 5 cells (cAMP)

Answered examples (5):
Ac-LEGREKVRAK(Ac)I[Aib]IEGK([TTDS-TTDS-TTDS-γGlu-γGlu-γGlu-Palmitoyl])STWS[Aib]RKK(Ac)-NH2 [peptide of SEQ ID NO: 70] :: 1.34
Ac-LEGREKVRAK(Ac)I[Aib][Aib]EGK([TTDS-TTDS-TTDS-γGlu-γGlu-γGlu-Palmitoyl])STFTRRAK(Ac)-NH2 [peptide of SEQ ID NO: 93] :: 0.77
Ac-LEGREKVRAK(Ac)I[Aib][Aib]EGK([TTDS-TTDS-TTDS-γGlu-γGlu-γGlu-Palmitoyl])SKWS[Aib]RAK-NH2 [peptide of SEQ ID NO: 73] :: 0.2
Ac-LEGREKVRAK(Ac)I[Aib][Aib]EGK([TTDS-TTDS-γGlu-γGlu-Palmitoyl])STFS[αMeK]RAK(Ac)-NH2 [peptide of SEQ ID NO: 9] :: 0.7
Ac-LEGREKVRAK(Ac)I[Aib][Aib]EGK([TTDS-TTDS-TTDS-γGlu-γGlu-γGlu-Palmitoyl])STW[Dser]KRAK(Ac)-NH2 [peptide of SEQ ID NO: 44] :: 2.2

a: Ac-LEGRERVRAK(Ac)I[Aib][Aib]EGK([TTDS-TTDS-TTDS-γGlu-γGlu-γGlu-Palmitoyl])ST[Trp(5-Cl)]S[Aib]RRK(Ac)-NH2 [peptide of SEQ ID NO: 80]
b: LEGREKVRAXIXXEGXSTFSXRAX (Ac-L-E-G-R-E-K-V-R-A-K(Ac)-I-Aib-Aib-E-G-K(PEG2DGA-PEG2DGA-PEG2DGA-gE-gE-gE-Palm)-S-T-F-S-Mly-R-A-K(Ac)-NH2) [peptide of SEQ ID NO: 22]
Input: Among a and b , which shows a numerically higher EC50 (nM), OVCAR 5 cells (cAMP) result? Identify your pick by its label.
Output: b
(b: 1 nM, a: 0.63 nM)

1: Ac-LEGREKVRAKI[Aib][Aib]EGK([TTDS-TTDS-TTDS-γGlu-γGlu-γGlu-Palmitoyl])STFS[αMeK]RAK(Ac)-NH2 [peptide of SEQ ID NO: 47]
2: Ac-LEGREQVRAK(Ac)I[Aib][Aib]EGK([TTDS-TTDS-TTDS-γGlu-γGlu-γGlu-Palmitoyl])STFS[αMeK]RAK(Ac)-NH2 [peptide of SEQ ID NO: 25]
Input: Lab log: flag the item ( 1 or 2 ) with the smaller EC50 (nM), OVCAR 5 cells (cAMP) figure. Identify your pick by its label.
Output: 1
(1: 0.64 nM, 2: 28.7 nM)

1: Ac-LEGREKVRAK(Ac)I[Aib][Aib]EGK([TTDS-TTDS-TTDS-γGlu-γGlu-γGlu-Palmitoyl])STF[Aib]RRAK(Ac)-NH2 [peptide of SEQ ID NO: 72]
2: Ac-LEGREKVRAK(Ac)I[Aib][Aib]EGK([TTDS-TTDS-TTDS-γGlu-γGlu-γGlu-Palmitoyl])STFS[Aib]RAK(Ac)-NH2 [peptide of SEQ ID NO: 2]
Input: Lab log: flag the item ( 1 or 2 ) with the smaller EC50 (nM), OVCAR 5 cells (cAMP) figure. Identify your pick by its label.
Output: 1
